Procedure details: Quantitative High-Throughput drug screen in 47 multiple myeloma cell lines against the NCATS MIPE library collection: OPM2_DSMZ cell viability assay (AID 1919872); further: nearly all actives have a fitted effect of over 30% in size
Applied conditions: OPM2 myeloma viability, CellTiter-Glo ATP luminescence, 48 h; series mostly up to 45.8 µM
Records with an inconclusive call do not appear. Calls of active or inactive are those of the source. The call rests on the fitted dose curve; in most records, active means well fitted cell-killing curve with a large enough effect; inconclusive means small, poorly fitted or top-dose-only effect, or effect the other way; inactive means no such curve, though single readings can be large or run the other way.
Just give me one of these, please: active, inactive

Previously resolved entries follow.
C[C@]12C=CC(=O)N[C@@H]1CC[C@H]1[C@H]3CC[C@@H](C(=O)Nc4cc(C(F)(F)F)ccc4C(F)(F)F)[C@@]3(C)CC[C@@H]12 | active
Cc1cc(Nc2ncc3c(n2)N(C)C(=O)N(c2cc(NC(=O)c4cccc(C(F)(F)F)c4)ccc2C)C3)n(C)n1 | active
CCOC(=O)N1CCN([N+]([O-])=NOc2ccc([N+](=O)[O-])cc2[N+](=O)[O-])CC1 | active
CCNC(=O)Nc1ccc(-c2nc3c(c(N4CCOC[C@H]4C)n2)CCN(C2COC2)C3)cc1 | active
CC(=O)OCC(=O)[C@@]12N=C(C)O[C@H]1C[C@H]1[C@@H]3CCC4=CC(=O)C=C[C@]4(C)[C@@H]3[C@@H](O)C[C@@]12C | inactive
CC(C=CC=C(C)C=CC1=C(C)CCCC1(C)C)=CC=CC=C(C)C=CC=C(C)C=CC1=C(C)CCCC1(C)C | inactive

Called result for "O=C(NCc1ccccc1)[C@H](Cc1ccccc1)NC(=O)[C@@H]1O[C@@H]1C(=O)NCCc1ccc(O)cc1"
inactive

Called result for "C[C@@]12C[C@@]3(O)O[C@@H](O1)[C@]1(COC(=O)c4ccccc4)[C@@H]3C[C@@]12O[C@@H]1O[C@H](CO)[C@@H](O)[C@H](O)[C@@H]1O"
inactive

Called result for "CC(=CC(=O)Nc1ccccc1C(=O)O)c1ccc2ccccc2c1"
inactive

Called result for OCC(O)C(O)C(O)CO (configuration not stated)
inactive

Called result for "COC(=O)[C@H](CCCN=C(N)N)NS(=O)(=O)c1ccc(C)cc1"
inactive

Called result for "O=C1NC(=O)[C@@H](c2cn3c4c(cccc24)CCC3)[C@H]1c1c[nH]c2ccccc12"
active

The reported numbers originate from PubChem BioAssay (NCATS).
